Test system: primary keratinocytes
assay-notes: Calcium imaging in primary keratinocytes
Type: cell-based, human
cond: primary keratinocytes; EGTA 10 mM calcium-free, SQ-22536 100 μM, MDL-12330A 40 μM, U-73122 10 μM, L-cis-diltiazem 150 μM
Protocol: The Sandalore®-induced signal cascade in HaCaT cells and primary keratinocytes was pharmacologically characterized using the calcium imaging technique and specific blockers of signal cascade proteins. […] Effect of the OR2AT4 ligand Sandalore® on intracellular calcium concentration of cultivated keratinocytes. […] Right: Quantitative evaluation of calcium signals in 4-time application of Sandalore® (500 μM). […]
recorded-endpoint: effect of blocker on Sandalore-induced calcium signals

[[record]]
compound = "Cl.c1ccc(C2CCCC2NC2=NCCCCCCCCCCC2)cc1 (centres unmarked) [MDL-12330A]"
subject_of_test = "primary keratinocytes"
recorded_measurement = "significant reduction"

[[record]]
compound = "COc1ccc([C@H]2Sc3ccccc3N(CCN(C)C)C(=O)[C@H]2OC(C)=O)cc1 (relative stereo) [L-cis-diltiazem]"
subject_of_test = "primary keratinocytes"
recorded_measurement = "significantly reduced"

[[record]]
compound = "O=C(O)CN(CCOCCOCCN(CC(=O)O)CC(=O)O)CC(=O)O [EGTA]"
subject_of_test = "primary keratinocytes"
recorded_measurement = "significantly reduced"

[[record]]
compound = "Nc1ncnc2c1ncn2C1CCCO1 (centres unmarked) [SQ-22536]"
subject_of_test = "primary keratinocytes"
recorded_measurement = "significant reduction"

